# Tgt: T1, EutQ Q75A (S. Typhimurium LT2, UniProt Q9ZFV5 1-229, Q75A)
# T1 construct: EutQ of S. Typhimurium LT2 with the point mutation Q75A; also called Q75A mutant
# T1 sequence: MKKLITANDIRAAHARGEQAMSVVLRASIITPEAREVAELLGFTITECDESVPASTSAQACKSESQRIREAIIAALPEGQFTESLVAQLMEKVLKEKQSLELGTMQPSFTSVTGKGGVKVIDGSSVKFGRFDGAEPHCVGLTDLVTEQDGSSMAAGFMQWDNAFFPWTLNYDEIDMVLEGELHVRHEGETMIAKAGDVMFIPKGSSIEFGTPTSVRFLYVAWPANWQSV
# Test method notes: ITC; point mutants of EutQ against EutC^1–20 (figs. S25 and S26); the method is not given, the Kd is compared with the ITC Kd of WT EutQ
# Condition description: both partners purified
Measurement label: Kd

Query: Look up Kd for this binder: MDQKQIEEIVRSVMASMGQD (EutC of S. Typhimurium LT2, N-terminal encapsulation peptide, residues 1-20; also called EutC peptide; EP of EutC; source: synthetic peptide (GenicBio)) [EutC^1–20 encapsulation peptide]
Result: 21.5 µM
